# tested on: STING WT: His-TVMV-S-hSTING(155-341)-H232R (Homo sapiens, UniProt Q86WV6, H232R)
# Construct: His-TVMV-S-hSTING(155-341)-H232R
# Sequence (Q86WV6 with tags, fused parts or gaps H232R): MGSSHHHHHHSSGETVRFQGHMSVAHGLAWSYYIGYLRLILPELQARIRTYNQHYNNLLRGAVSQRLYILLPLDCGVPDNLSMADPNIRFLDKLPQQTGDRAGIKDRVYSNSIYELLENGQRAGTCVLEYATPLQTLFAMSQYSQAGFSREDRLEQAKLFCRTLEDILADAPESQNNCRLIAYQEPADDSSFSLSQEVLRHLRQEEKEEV
# procedure details: STING HTRF binding assay (time resolved FRET competition), STING WT
# experimental conditions: 20 nM His-tagged STING cytoplasmic domain, 200 nM fluorescein-labeled cGAMP analog probe, one hour; read-out: HTRF Binding Assays IC50 STING WT
# Procedure: A time resolved FRET-based competition binding assay was used to assess test article binding to STING WT and STING AQ. […] Fluorescence at 495 nm and 520 nm was measured using an EnVision microplate reader to quantify FRET between Tb-labeled anti-His antibody and fluorescein-labeled probe. […] Percent inhibition was determined for test compounds at 11 concentrations. […]
measurement kind: log10 of IC50 (log10 of the value in µM)
Values are log10 of IC50 in µM.

Prompt line: # query: log10 of IC50 of entry Nc1ncnc2c1ncn2[C@@H]1O[C@@H]2COP(O)(=S)OC[C@@H]3[C@@H](COP(O)(=S)O[C@H]2[C@H]1F)C[C@H]3n1cnc2c(=O)[nH]cnc21 (single isomer, unassigned) [Example 5-2]
Response line: -0.36

Prompt line: # query: log10 of IC50 of entry Nc1ncnc2c1ncn2[C@@H]1C[C@@H]2COP(=O)(S)O[C@H]3[C@@H](F)[C@H](n4cnc5c(N)ncnc54)O[C@@H]3COP(=O)(S)OC[C@H]21 (single isomer, unassigned) [Example 1-2]
Response line: -1.05

Prompt line: # query: log10 of IC50 of entry NC(=O)c1cccc2c1nnn2[C@@H]1O[C@@H]2COP(O)(=S)OC[C@@H]3[C@@H](COP(O)(=S)O[C@H]2[C@H]1F)C[C@H]3n1cnc2c(N)ncnc21 (single isomer, unassigned) [Example 12-4]
Response line: 1.34

Prompt line: # query: log10 of IC50 of entry Nc1nc2c(ncn2[C@@H]2C[C@@H]3COP(O)(=S)O[C@H]4[C@@H](F)[C@H](n5cnc6c(N)ncnc65)O[C@@H]4COP(O)(=S)OC[C@H]32)c(=O)[nH]1 (single isomer, unassigned) [Example 18-3]
Response line: -0.28

Prompt line: # query: log10 of IC50 of entry O=c1[nH]c2nccn2c2c1ncn2[C@@H]1O[C@@H]2COP(=O)(S)OC[C@@H]3[C@@H](COP(=O)(S)O[C@@H]1[C@@H]2O)C[C@H]3n1cnc2c(O)ncnc21 (single isomer, unassigned) [Example 14-1]
Response line: 1.92

Prompt line: # query: log10 of IC50 of entry O=c1[nH]c2nccn2c2c1ncn2[C@@H]1O[C@@H]2COP(=O)(S)OC[C@@H]3[C@@H](COP(=O)(S)O[C@@H]1[C@@H]2O)C[C@H]3n1cnc2c(O)ncnc21 (single isomer, unassigned) [Example 14-2]
Response line: 1.41

Prompt line: # query: log10 of IC50 of entry Nc1ncnc2c1ncn2[C@@H]1C[C@@H]2COP(O)(=S)O[C@H]3[C@@H](O)[C@H](n4cnc5c(O)ncnc54)O[C@@H]3COP(O)(=S)OC[C@H]21 (stereo partly shown) [Example 16]
Response line: 1.25

###

# tested on: STING WT: His-TVMV-S-hSTING(155-341)-H232R (Homo sapiens, UniProt Q86WV6, H232R)
# Construct: His-TVMV-S-hSTING(155-341)-H232R
# procedure details: STING HTRF binding assay (time resolved FRET competition), STING WT
# experimental conditions: 20 nM His-tagged STING cytoplasmic domain, 200 nM fluorescein-labeled cGAMP analog probe, one hour; read-out: HTRF Binding Assays IC50 STING WT
Could you please report measured IC50 for the items listed next?

Prompt line: # query: IC50 of entry NC(=O)c1cccc2c1nnn2[C@@H]1O[C@@H]2COP(O)(=S)OC[C@@H]3[C@@H](COP(O)(=S)O[C@H]2[C@H]1F)C[C@H]3n1cnc2c(N)ncnc21 (single isomer, unassigned) [Example 12-3]
Response line: > 100 µM

Prompt line: # query: IC50 of entry NC(=O)c1cccc2c1nnn2[C@@H]1O[C@@H]2COP(O)(=S)OC[C@@H]3[C@@H](COP(O)(=S)O[C@H]2[C@H]1F)C[C@H]3n1cnc2c(N)ncnc21 (single isomer, unassigned) [Example 12-2]
Response line: > 100 µM

Prompt line: # query: IC50 of entry Nc1ncnc2c1ncn2[C@@H]1C[C@@H]2COP(=O)(S)O[C@H]3[C@@H](F)[C@H](n4cnc5c(N)ncnc54)O[C@@H]3COP(=O)(S)OC[C@H]21 (single isomer, unassigned) [Example 2-1]
Response line: 24 µM

Prompt line: # query: IC50 of entry NC(=O)c1cccc2c1nnn2[C@@H]1C[C@@H]2COP(O)(=S)O[C@H]3[C@@H](F)[C@H](n4cnc5c(N)ncnc54)O[C@@H]3COP(O)(=S)OC[C@H]21 (single isomer, unassigned) [Example 13-1]
Response line: > 100 µM

###

Could you please report measured IC50 for the items listed next?
# tested on: STING AQ: His-TVMV-S-hSTING(155-341)-G230A-R293Q (Homo sapiens, UniProt Q86WV6, G230A/H232R/R293Q)
# Construct: His-TVMV-S-hSTING(155-341)-G230A-R293Q
# Sequence (Q86WV6 with tags, fused parts or gaps G230A/H232R/R293Q): as the sequence (Q86WV6 with tags, fused parts or gaps H232R) above, with G99A, R162Q counted along it
# procedure details: STING HTRF binding assay (time resolved FRET competition), STING AQ
# experimental conditions: 20 nM His-tagged STING cytoplasmic domain, 40 nM fluorescein-labeled cGAMP analog probe, one hour; read-out: HTRF Binding Assays IC50 STING AQ
# Experimental: A time resolved FRET-based competition binding assay was used to assess test article binding to STING WT and STING AQ. […] Fluorescence at 495 nm and 520 nm was measured using an EnVision microplate reader to quantify FRET between Tb-labeled anti-His antibody and fluorescein-labeled probe. […] Percent inhibition was determined for test compounds at 11 concentrations. […]
Give the quantity in nM, number only.

Prompt line: # query: IC50 of entry NC(=O)c1cccc2c1nnn2[C@@H]1O[C@@H]2COP(O)(=S)OC[C@@H]3[C@@H](COP(O)(=S)O[C@@H]1[C@@H]2F)C[C@H]3n1cnc2c(N)ncnc21 (single isomer, unassigned) [Example 11-4]
Response line: 23100

Prompt line: # query: IC50 of entry NC(=O)c1cccc2c1nnn2[C@@H]1C[C@@H]2COP(O)(=S)O[C@H]3[C@@H](F)[C@H](n4cnc5c(N)ncnc54)O[C@@H]3COP(O)(=S)OC[C@H]21 (single isomer, unassigned) [Example 13-4]
Response line: 50

Prompt line: # query: IC50 of entry Nc1ncnc2c1ncn2[C@@H]1C[C@@H]2COP(O)(=S)O[C@H]3[C@@H](F)[C@H](n4cnc5c(=O)[nH]c6nccn6c54)O[C@@H]3COP(O)(=S)OC[C@H]21 (single isomer, unassigned) [Example 9-4]
Response line: 80

Prompt line: # query: IC50 of entry Nc1ncnc2c1ncn2[C@@H]1C[C@@H]2COP(=O)(S)O[C@H]3[C@@H](F)[C@H](n4cnc5c(N)ncnc54)O[C@@H]3COP(=O)(S)OC[C@H]21 (single isomer, unassigned) [Example 1-2]
Response line: 10

Prompt line: # query: IC50 of entry Nc1ncnc2c1ncn2[C@@H]1C[C@@H]2COP(=O)(S)O[C@H]3[C@@H](F)[C@H](n4cnc5c(N)ncnc54)O[C@@H]3COP(=O)(S)OC[C@H]21 (single isomer, unassigned) [Example 2-1]
Response line: 210

Prompt line: # query: IC50 of entry Nc1ncnc2c1ncn2[C@@H]1C[C@@H]2COP(O)(=S)O[C@H]3C[C@H](n4ccc5c(Cl)ncnc54)O[C@@H]3COP(=O)(S)OC[C@H]21 (single isomer, unassigned) [Example 6-2]
Response line: 82600

Prompt line: # query: IC50 of entry Nc1ncnc2c1ncn2[C@@H]1C[C@@H]2COP(O)(=S)O[C@H]3[C@@H](F)[C@H](n4cnc5c(=O)[nH]c6nccn6c54)O[C@@H]3COP(O)(=S)OC[C@H]21 (single isomer, unassigned) [Example 9-3]
Response line: 350

Prompt line: # query: IC50 of entry Nc1nc2c(ncn2[C@@H]2C[C@@H]3COP(O)(=S)O[C@H]4[C@@H](F)[C@H](n5cnc6c(N)ncnc65)O[C@@H]4COP(O)(=S)OC[C@H]32)c(=O)[nH]1 (single isomer, unassigned) [Example 18-3]
Response line: 20

###

# tested on: STING WT: His-TVMV-S-hSTING(155-341)-H232R (Homo sapiens, UniProt Q86WV6, H232R)
# Construct: His-TVMV-S-hSTING(155-341)-H232R
# procedure details: STING HTRF binding assay (time resolved FRET competition), STING WT
# experimental conditions: 20 nM His-tagged STING cytoplasmic domain, 200 nM fluorescein-labeled cGAMP analog probe, one hour; read-out: HTRF Binding Assays IC50 STING WT
Could you please report measured pIC50 for the items listed next?
The quantity pIC50 is defined as the negative base-10 logarithm of the molar concentration.

Prompt line: Checklist item: pIC50 tested on STING WT: His-TVMV-S-hSTING(155-341)-H232R (Homo sapiens, UniProt Q86WV6, H232R), entry Nc1ncnc2c1ncn2[C@@H]1C[C@@H]2COP(O)(=S)O[C@@H]3[C@H](O)[C@@H](COP(O)(=S)OC[C@H]21)O[C@H]3n1cnc2c(O)nc3nccn3c21 (single isomer, unassigned) [Example 15-1] , value?
Response line: 4.47

Prompt line: Checklist item: pIC50 tested on STING WT: His-TVMV-S-hSTING(155-341)-H232R (Homo sapiens, UniProt Q86WV6, H232R), entry Nc1ncnc2c1ncn2[C@@H]1C[C@@H]2COP(O)(=S)O[C@H]3[C@H](F)[C@H](n4ccc5c(Cl)ncnc54)O[C@@H]3COP(O)(=S)OC[C@H]21 (single isomer, unassigned) [Example 7-4] , value?
Response line: 4.31

Prompt line: Checklist item: pIC50 tested on STING WT: His-TVMV-S-hSTING(155-341)-H232R (Homo sapiens, UniProt Q86WV6, H232R), entry Nc1nc2c(ncn2[C@@H]2C[C@@H]3COP(O)(=S)O[C@H]4[C@@H](F)[C@H](n5cnc6c(N)ncnc65)O[C@@H]4COP(O)(=S)OC[C@H]32)c(=O)[nH]1 (single isomer, unassigned) [Example 18-1] , value?
Response line: 8.40

Prompt line: Checklist item: pIC50 tested on STING WT: His-TVMV-S-hSTING(155-341)-H232R (Homo sapiens, UniProt Q86WV6, H232R), entry Nc1ncnc2c1ncn2[C@@H]1C[C@@H]2COP(=O)(S)O[C@H]3[C@@H](F)[C@H](n4cnc5c(N)ncnc54)O[C@@H]3COP(=O)(S)OC[C@H]21 (single isomer, unassigned) [Example 2-2] , value?
Response line: 6.06

Prompt line: Checklist item: pIC50 tested on STING WT: His-TVMV-S-hSTING(155-341)-H232R (Homo sapiens, UniProt Q86WV6, H232R), entry Nc1ncnc2c1ncn2[C@@H]1O[C@@H]2COP(O)(=S)OC[C@@H]3[C@@H](COP(O)(=S)O[C@H]2[C@H]1F)C[C@H]3n1cnc2c(O)nc3nccn3c21 (single isomer, unassigned) [Example 3-1] , value?
Response line: 4.82

Prompt line: Checklist item: pIC50 tested on STING WT: His-TVMV-S-hSTING(155-341)-H232R (Homo sapiens, UniProt Q86WV6, H232R), entry Nc1ncnc2c1ncn2[C@@H]1C[C@@H]2COP(O)(=S)O[C@H]3[C@@H](F)[C@H](n4cnc5c(=O)[nH]c6nccn6c54)O[C@@H]3COP(O)(=S)OC[C@H]21 (single isomer, unassigned) [Example 9-2] , value?
Response line: 5.37

Prompt line: Checklist item: pIC50 tested on STING WT: His-TVMV-S-hSTING(155-341)-H232R (Homo sapiens, UniProt Q86WV6, H232R), entry Nc1ncnc2c1ccn2[C@@H]1O[C@@H]2COP(O)(=S)OC[C@@H]3[C@@H](COP(O)(=S)O[C@H]2[C@@H]1F)C[C@H]3n1cnc2c(N)ncnc21 (single isomer, unassigned) [Example 8-2] , value?
Response line: 4.48
